# experimental.system: Carbonic anhydrase 1 (Homo sapiens)
# method.description: Inhibition of human recombinant carbonic anhdydrase-1 expressed in Escherichia coli pre-incubated for 6 hrs by stopped-flow CO2 hydration assay
metric.name: Ki

Below: 3 compounds and their reported Ki.
>>> endpoint_result("O=C(Nc1ccc2c(c1)C=CS(=O)(=O)O2)c1cccnc1")
"> 10 µM"
>>> endpoint_result("O=C(Cc1ccccc1)Nc1ccc2c(c1)C=CS(=O)(=O)O2")
"> 10 µM"
>>> endpoint_result("O=C(Nc1ccc2c(c1)C=CS(=O)(=O)O2)c1ccccc1I")
"> 10 µM"

# return recorded Ki for input "O=C(Nc1ccc2c(c1)C=CS(=O)(=O)O2)c1ccccc1"
> 10 µM

Report Ki, nothing else, for this compound: "O=C(Nc1ccc2c(c1)C=CS(=O)(=O)O2)c1cccs1"
> 10 µM

Give the value of Ki reported for the following: "O=C(Nc1ccc2c(c1)C=CS(=O)(=O)O2)c1ccco1"
> 10 µM

Specify reported Ki for the compound shown: "Cc1ccc(C(=O)Nc2ccc3c(c2)C=CS(=O)(=O)O3)cc1"
> 10 µM

Please report Ki for the following compound: "O=C(Nc1ccc2c(c1)C=CS(=O)(=O)O2)c1ccccc1Br"
> 10 µM

For "C[N+](C)(C)c1ccc2c(c1)C=CS(=O)(=O)O2" , write its Ki.
> 10 µM

Tell us which Ki value is on record for "COc1ccc2c(c1)C=CS(=O)(=O)O2"
> 10 µM

Recall and state the measured Ki for "CC(C)(C)C(=O)Nc1ccc2c(c1)C=CS(=O)(=O)O2" .
> 10 µM

###

# pKi listing for each entry below
# experimental.system: Carbonic anhydrase 9 (Homo sapiens, UniProt Q16790)
# method.description: Inhibition of human recombinant carbonic anhdydrase-9 expressed in Escherichia coli pre-incubated for 6 hrs by stopped-flow CO2 hydration assay
Worth noting: pKi values are minus log10 of concentrations stated in mol/L.

>>> endpoint_result("CC(=O)Nc1ccc2c(c1)C=CS(=O)(=O)O2")
7.76

Give measured pKi for "CC(C)(C)C(=O)Nc1ccc2c(c1)C=CS(=O)(=O)O2" (Carbonic anhydrase 9 (Homo sapiens, UniProt Q16790)).
8.25

Write pKi of "O=C(Nc1ccc2c(c1)C=CS(=O)(=O)O2)c1ccccc1" ; system used: Carbonic anhydrase 9 (Homo sapiens, UniProt Q16790)
8.18

// output pKi; input "Cc1ccc(C(=O)Nc2ccc3c(c2)C=CS(=O)(=O)O3)cc1" ; system Carbonic anhydrase 9 (Homo sapiens, UniProt Q16790)
8.05

// fetch pKi; item: "O=C(Nc1ccc2c(c1)C=CS(=O)(=O)O2)c1ccccc1I" ; system: Carbonic anhydrase 9 (Homo sapiens, UniProt Q16790)
8.04

// fetch pKi; item: "COc1ccc2c(c1)C=CS(=O)(=O)O2" ; system: Carbonic anhydrase 9 (Homo sapiens, UniProt Q16790)
7.38

Fill in: pKi on Carbonic anhydrase 9 (Homo sapiens, UniProt Q16790), entry "O=C(Nc1ccc2c(c1)C=CS(=O)(=O)O2)c1cccnc1"
7.98

Provide pKi, recorded with Carbonic anhydrase 9 (Homo sapiens, UniProt Q16790), of "O=C(Cc1ccccc1)Nc1ccc2c(c1)C=CS(=O)(=O)O2"
7.09

# lookup: Carbonic anhydrase 9 (Homo sapiens, UniProt Q16790) pKi, key = "O=C(Nc1ccc2c(c1)C=CS(=O)(=O)O2)c1ccco1"
7.48

###

# experimental.system: Carbonic anhydrase 2 (Homo sapiens, UniProt P00918)
# method.description: Inhibition of human recombinant carbonic anhdydrase-2 expressed in Escherichia coli pre-incubated for 6 hrs by stopped-flow CO2 hydration assay
pKi: −log10 of the molar value.
Each entry below carries its recorded pKi.

Some solved entries appear below for comparison.
>>> endpoint_result("O=C(Nc1ccc2c(c1)C=CS(=O)(=O)O2)c1ccco1")
"< 5.00"
>>> endpoint_result("Cc1ccc(C(=O)Nc2ccc3c(c2)C=CS(=O)(=O)O3)cc1")
"< 5.00"
>>> endpoint_result("O=C(Nc1ccc2c(c1)C=CS(=O)(=O)O2)c1ccccc1Br")
"< 5.00"
>>> endpoint_result("COc1ccc2c(c1)C=CS(=O)(=O)O2")
"< 5.00"
>>> endpoint_result("O=C(Cc1ccccc1)Nc1ccc2c(c1)C=CS(=O)(=O)O2")
"< 5.00"
>>> endpoint_result("O=C(Nc1ccc2c(c1)C=CS(=O)(=O)O2)c1cccs1")
"< 5.00"

Quote pKi reported for "O=C(Nc1ccc2c(c1)C=CS(=O)(=O)O2)c1ccncc1" please.
< 5.00

Specify pKi for "O=C(Nc1ccc2c(c1)C=CS(=O)(=O)O2)c1cccnc1" and stop.
< 5.00

###

# experimental.system: Carbonic anhydrase 1 (Homo sapiens, UniProt P00915)
# Sequence (P00915 whole entry): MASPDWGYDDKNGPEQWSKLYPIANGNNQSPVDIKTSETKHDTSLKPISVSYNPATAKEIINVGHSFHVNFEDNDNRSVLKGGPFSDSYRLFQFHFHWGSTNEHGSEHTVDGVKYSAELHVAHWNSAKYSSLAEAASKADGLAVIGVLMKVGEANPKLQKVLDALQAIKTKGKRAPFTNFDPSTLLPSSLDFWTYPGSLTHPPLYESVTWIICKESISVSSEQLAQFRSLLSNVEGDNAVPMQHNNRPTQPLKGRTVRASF
# method.description: Inhibition of human recombinant carbonic anhdydrase-1 expressed in Escherichia coli pre-incubated for 6 hrs by stopped-flow CO2 hydration assay
pKi: −log10 of the molar value.
metric.name: pKi

Reference set, count: 2
>>> endpoint_result("N#Cc1ccc2c(c1)C=CS(=O)(=O)O2")
"< 5.00"
>>> endpoint_result("O=C(Nc1ccc2c(c1)C=CS(=O)(=O)O2)c1ccncc1")
"< 5.00"

Now consider a different compound.
Give a short answer stating reported pKi for "CC(=O)Nc1ccc2c(c1)C=CS(=O)(=O)O2" .
< 5.00

###

# experimental.system: UniProt Q16790
# method.description: Inhibition of human recombinant carbonic anhdydrase-9 expressed in Escherichia coli pre-incubated for 6 hrs by stopped-flow CO2 hydration assay
Reported Ki by item:
# value in nM; strip the unit string

>>> endpoint_result("N#Cc1ccc2c(c1)C=CS(=O)(=O)O2")
33.8
>>> endpoint_result("O=C(Nc1ccc2c(c1)C=CS(=O)(=O)O2)c1ccccc1Br")
9.7
>>> endpoint_result("C[N+](C)(C)c1ccc2c(c1)C=CS(=O)(=O)O2")
9.6
>>> endpoint_result("O=C(Nc1ccc2c(c1)C=CS(=O)(=O)O2)c1cccs1")
29.5

Report Ki, nothing else, for this molecule: "O=C(Nc1ccc2c(c1)C=CS(=O)(=O)O2)c1ccncc1"
7.7
